Tested system: GABAB receptor (Rattus norvegicus, UniProt O88871+Q9Z0U4)
Sequence (O88871 41-940): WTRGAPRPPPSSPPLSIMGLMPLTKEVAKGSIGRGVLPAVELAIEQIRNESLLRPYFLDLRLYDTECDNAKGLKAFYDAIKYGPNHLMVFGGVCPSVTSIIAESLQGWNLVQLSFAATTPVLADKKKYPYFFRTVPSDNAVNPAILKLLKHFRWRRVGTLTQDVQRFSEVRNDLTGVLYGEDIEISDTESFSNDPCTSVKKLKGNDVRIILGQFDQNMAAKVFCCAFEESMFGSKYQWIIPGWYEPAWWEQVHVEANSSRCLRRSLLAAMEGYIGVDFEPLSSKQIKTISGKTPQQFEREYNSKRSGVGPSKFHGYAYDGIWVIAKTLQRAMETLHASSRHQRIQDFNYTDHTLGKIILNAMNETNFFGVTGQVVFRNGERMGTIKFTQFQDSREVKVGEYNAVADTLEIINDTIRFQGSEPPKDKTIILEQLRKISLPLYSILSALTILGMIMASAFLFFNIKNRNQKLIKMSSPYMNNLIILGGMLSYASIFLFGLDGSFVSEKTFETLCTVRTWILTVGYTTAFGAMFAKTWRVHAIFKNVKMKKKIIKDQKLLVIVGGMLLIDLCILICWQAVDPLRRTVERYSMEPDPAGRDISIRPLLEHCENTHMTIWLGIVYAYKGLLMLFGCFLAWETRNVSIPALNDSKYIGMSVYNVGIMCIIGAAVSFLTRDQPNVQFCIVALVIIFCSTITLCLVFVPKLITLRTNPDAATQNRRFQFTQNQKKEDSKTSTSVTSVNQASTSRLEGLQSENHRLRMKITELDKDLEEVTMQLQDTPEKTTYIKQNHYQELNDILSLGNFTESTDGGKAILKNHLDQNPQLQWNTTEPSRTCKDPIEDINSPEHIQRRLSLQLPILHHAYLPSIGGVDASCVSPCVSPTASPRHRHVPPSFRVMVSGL
Sequence (Q9Z0U4 17-960 limits assumed): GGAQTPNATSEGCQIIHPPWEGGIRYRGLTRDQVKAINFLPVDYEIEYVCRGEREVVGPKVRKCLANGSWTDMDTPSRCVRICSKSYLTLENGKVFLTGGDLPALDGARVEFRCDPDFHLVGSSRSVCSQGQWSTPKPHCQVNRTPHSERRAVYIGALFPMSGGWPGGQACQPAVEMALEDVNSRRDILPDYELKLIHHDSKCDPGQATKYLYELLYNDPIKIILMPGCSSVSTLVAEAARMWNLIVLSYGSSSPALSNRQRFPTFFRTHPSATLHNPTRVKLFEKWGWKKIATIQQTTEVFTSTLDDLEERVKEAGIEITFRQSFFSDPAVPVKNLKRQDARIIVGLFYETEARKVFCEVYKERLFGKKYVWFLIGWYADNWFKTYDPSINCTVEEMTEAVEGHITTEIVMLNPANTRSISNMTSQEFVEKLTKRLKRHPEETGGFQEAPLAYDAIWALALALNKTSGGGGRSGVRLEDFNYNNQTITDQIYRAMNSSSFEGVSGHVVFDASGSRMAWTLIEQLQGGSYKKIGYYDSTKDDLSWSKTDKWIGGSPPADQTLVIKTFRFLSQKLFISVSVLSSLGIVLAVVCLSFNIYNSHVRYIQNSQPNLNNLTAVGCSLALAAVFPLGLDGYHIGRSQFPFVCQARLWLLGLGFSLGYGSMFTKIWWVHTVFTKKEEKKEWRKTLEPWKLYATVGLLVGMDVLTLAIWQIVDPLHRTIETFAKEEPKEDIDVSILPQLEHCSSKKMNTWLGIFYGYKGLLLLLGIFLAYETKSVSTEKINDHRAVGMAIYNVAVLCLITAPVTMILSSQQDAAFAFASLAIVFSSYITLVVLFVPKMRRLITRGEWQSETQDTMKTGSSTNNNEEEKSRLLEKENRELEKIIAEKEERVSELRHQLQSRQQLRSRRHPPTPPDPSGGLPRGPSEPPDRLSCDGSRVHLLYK
Test name: In vitro [35S]GTPγS binding assay in rat cortical membranes
Settings: PAM EC50, [35S]GTPγS binding, read-out: In vitro PAM potency
Property: EC50

Please respond with reported EC50 (system GABAB receptor (Rattus norvegicus, UniProt O88871+Q9Z0U4)) for COC(=O)N1C[C@H](c2cc(C)nc3cc([C@H]4CC[C@H](C(F)(F)F)CC4)nn23)OC[C@@H]1C(C)C [Example 127] .
0.1 to 1 µM

====

Tested system: GABAB receptor (Rattus norvegicus, UniProt O88871+Q9Z0U4)
Test name: In vitro [35S]GTPγS binding assay in rat cortical membranes
Settings: PAM EC50, [35S]GTPγS binding, read-out: In vitro PAM potency
As shown below, each of these molecules has a reported EC50 value.

Study these solved cases before continuing.
{"Molecule": "Cc1nc2cc([C@H]3CC[C@H](C(F)(F)F)CC3)nn2c([C@@H]2CN(C=O)CC[C@@H]2C)c1C [Example 58]", "Tested system": "GABAB receptor (Rattus norvegicus, UniProt O88871+Q9Z0U4)", "Reported value": "< 100 nM"}
{"Molecule": "CC(=O)N1CCCC(c2c(C(C)C)c(C)nc3cc([C@H]4CC[C@H](C(F)(F)F)CC4)nn23)C1 (stereo partly drawn) [Example 40]", "Tested system": "GABAB receptor (Rattus norvegicus, UniProt O88871+Q9Z0U4)", "Reported value": "< 100 nM"}
{"Molecule": "Cc1cc([C@H]2C[C@@H](C)CN(C=O)C2)n2nc([C@H]3CC[C@H](C(F)(F)F)CC3)cc2n1 (racemic) [Example 104]", "Tested system": "GABAB receptor (Rattus norvegicus, UniProt O88871+Q9Z0U4)", "Reported value": "100 to 1000 nM"}
{"Molecule": "CC(=O)N1CC[C@H](C)[C@H](c2cc(C)nc3c(F)c([C@H]4CC[C@H](C(F)(F)F)CC4)nn23)C1 (racemic) [Example 158]", "Tested system": "GABAB receptor (Rattus norvegicus, UniProt O88871+Q9Z0U4)", "Reported value": "100 to 1000 nM"}
{"Molecule": "Cc1cc([C@@H]2CN(C=O)[C@@H](C)CO2)n2nc([C@H]3CC[C@H](C(F)(F)F)CC3)cc2n1 [Example 98]", "Tested system": "GABAB receptor (Rattus norvegicus, UniProt O88871+Q9Z0U4)", "Reported value": "1000 to 10000 nM"}
{"Molecule": "CCc1c(C)nc2cc([C@H]3CC[C@H](C(F)(F)F)CC3)nn2c1C1CN(C=O)CCO1 (stereo partly drawn) [Example 82]", "Tested system": "GABAB receptor (Rattus norvegicus, UniProt O88871+Q9Z0U4)", "Reported value": "< 100 nM"}
{"Molecule": "COC(=O)N1CCOC(c2cc(C)nc3cc([C@H]4CC[C@H](C(F)(F)F)CC4)nn23)C1 (stereo partly drawn) [Example 84]", "Tested system": "GABAB receptor (Rattus norvegicus, UniProt O88871+Q9Z0U4)", "Reported value": "100 to 1000 nM"}
{"Molecule": "COC(=O)N1C[C@H](c2cc(C)nc3cc([C@H]4CC[C@H](C(F)(F)F)CC4)nn23)OC[C@H]1C [Example 106]", "Tested system": "GABAB receptor (Rattus norvegicus, UniProt O88871+Q9Z0U4)", "Reported value": "100 to 1000 nM"}

Tell me EC50 reported for Cc1cc([C@H]2CN(C(=O)OC(C)C)CCO2)n2nc([C@H]3CC[C@H](C(F)(F)F)CC3)cc2n1 [Example 99]
100 to 1000 nM
